# Run Description: gradient 5% acetonitrile 3 min, to 50% in 2 min, to 85% in 15 min, held 3 min, 100 µL/min
# Protocol Conditions: column: Zorbax Extend-C18 2.1 x 50 mm; eluents: water / acetonitrile, 0.1% formic acid
Some compounds, each annotated with its measured RP-LC retention time.
Number in s, nothing else.

Example entries begin here.
CCc1nc2cc(N3CCC(C(=O)Nc4cc(C)ccc4OC)CC3)cnc2nc1CC; 992
O=C(CCn1nnc2cc(-c3noc(Cc4cccc(F)c4)n3)ccc21)N1CCCC1; 855
O=C(CN1C(=O)COc2ccc(C(=O)N3CCCCC3)cc21)NC1CCCCCC1; 782
CCn1ccc(C(=O)NCC23CCC=C2N(CC2CC2)C(=O)CC3)n1 (stereo not given); 770
Cc1ccc(NCCN(C)C)c2c(=O)c3cc(O)ccc3sc12; 736

[Q] Look at this compound and give its reported RP-LC retention time. `Cc1ccc(CNC(=O)CCn2nc(C)c3c(C)n(-c4ccccc4)nc3c2=O)o1`
[A] 734

[Q] Quick check: RP-LC retention time of `Cc1cc(C)n(CCNC(=O)c2nc3ccccc3s2)n1` ?
[A] 708

[Q] Quick one: RP-LC retention time of `Cc1cc(C(=O)N(Cc2ccco2)c2nc3ccccc3s2)on1` ?
[A] 1100

[Q] Please look up its RP-LC retention time: O=C(CN1CCc2ccccc2C1C(=O)N1CCCC1)Nc1ccc(Cl)cc1 (stereo not given)
[A] 860

[Q] Sample `O=C(CCc1ccc2cc[nH]c2c1)NCc1cc(F)cc(F)c1` — what was its RP-LC retention time?
[A] 848

---

compounds and their reported RP-LC retention time
# Run Description: gradient 5% acetonitrile 3 min, to 50% in 2 min, to 85% in 15 min, held 3 min, 100 µL/min
# Protocol Conditions: column: Zorbax Extend-C18 2.1 x 50 mm; eluents: water / acetonitrile, 0.1% formic acid
Unit s implied. Number only.

[Q] Please give the measured RP-LC retention time for this compound: O=C(CN1C(=O)CC(c2ccccc2)S(=O)(=O)c2ccccc21)Nc1ccc(F)cc1F (centres undefined)
[A] 906

[Q] Which RP-LC retention time reading was recorded for the compound `O=C(NC1CC1)[C@@H]1C[C@H](Oc2ccccc2)CN1C(=O)CCC1CCCC1` ?
[A] 886

[Q] State the recorded RP-LC retention time for this entry: CCC(C)N(CCNC(=O)Cn1c(=O)oc2ccccc21)Cc1ccco1 (centres undefined)
[A] 631

[Q] Form field: reported RP-LC retention time of `CCOC(=O)CNC(=O)Cn1cnc2c(oc3ccccc32)c1=O`
[A] 624

[Q] # input compound: `COc1ccc(NC(=O)c2cnc(N3CCN(C(C)C)CC3)nc2N)cc1` ; wanted: its RP-LC retention time
[A] 593

[Q] Could you tell me which RP-LC retention time is on file for `CCN(CC)CCCNC(=O)C1CCN(c2nc3cccnc3s2)CC1` ?
[A] 570

[Q] Please give the measured RP-LC retention time for this compound: `CCCC(=O)Nc1ccc2nc(N3CCN(CC(=O)NCCOC)CC3)cc(C(=O)O)c2c1`
[A] 839

[Q] // RP-LC retention time lookup, key: `Cc1cccc(-c2nc(CN(c3ccccc3)S(=O)(=O)c3cccs3)c(C)o2)c1`
[A] 1240

[Q] # query: RP-LC retention time of entry `CN(C)c1cccc(-c2nc(-c3ccc(S(=O)(=O)N4CCCC4)cc3)no2)c1`
[A] 1250

---

# Run Description: gradient 5% acetonitrile 3 min, to 50% in 2 min, to 85% in 15 min, held 3 min, 100 µL/min
# Protocol Conditions: column: Zorbax Extend-C18 2.1 x 50 mm; eluents: water / acetonitrile, 0.1% formic acid
Observation Type: RP-LC retention time
Report the figure along with its unit, number first.

[Q] Look up RP-LC retention time: `Cn1c(=O)sc2cc(S(=O)(=O)N3CCC(C(=O)Nc4ccccn4)CC3)ccc21`
[A] 684 s

---

# Run Description: gradient 5% acetonitrile 3 min, to 50% in 2 min, to 85% in 15 min, held 3 min, 100 µL/min
# Protocol Conditions: column: Zorbax Extend-C18 2.1 x 50 mm; eluents: water / acetonitrile, 0.1% formic acid
Observation Type: RP-LC retention time
Could you kindly put the unit after your number?

Cc1ccccc1Oc1ccc(S(=O)(=O)NCCC(=O)O)cc1; 759 s
O=C(c1ccc(F)c(Cl)c1)N1CCN(c2nc(CN3CCOCC3)cs2)CC1; 638 s
Cc1ccc(C2=NC3(CCN(C(=O)c4ccco4)CC3)ON2)cc1; 747 s
O=C(Nc1cccc(F)c1)N1CC(Oc2ccc(-c3nc(-c4ccccc4)no3)cc2)C1; 1200 s
Cc1ccc(NS(=O)(=O)c2c(C)nc3sc4cc(C)ccc4n3c2=O)c(C)c1; 1230 s

[Q] Returns the measured RP-LC retention time for the input compound. Input: CCOc1ccc(NC(=O)C2CCCN2S(=O)(=O)c2cc3c(cc2C)NC(=O)CO3)cc1 (stereo not drawn)
[A] 770 s

[Q] GET /values?readout=RP-LC retention time&item= `Cc1oc(C2CCN(S(=O)(=O)c3cccc(C#N)c3)CC2)nc1C(=O)N(C)C`
[A] 751 s

[Q] Give the measured RP-LC retention time of `Cc1ccnc(N2CCC(C(=O)NCCc3ccco3)CC2)n1` .
[A] 640 s

[Q] Any idea what RP-LC retention time was measured for `CSc1cccc(NC(=O)N(C)CC2CCOCC2)c1` ?
[A] 743 s

[Q] If you can, please state the reported RP-LC retention time value of `Cc1ccc(N2CCN(C(=O)c3ccc(CN4CCN(C(C)C)C(=O)C4=O)cc3)CC2)cc1` .
[A] 728 s

[Q] Suppose we examine the compound `Cc1ccccc1-n1ccn(Cc2nc(-c3ccc(F)cc3)no2)c(=O)c1=O` ; what RP-LC retention time value has been reported?
[A] 844 s

[Q] What RP-LC retention time value was documented for this compound, Cc1ccccc1S(=O)(=O)N1CCCC(C)(C(=O)NCc2ccccc2)C1 (stereo not drawn) ?
[A] 944 s

---

# Run Description: gradient 5% acetonitrile 3 min, to 50% in 2 min, to 85% in 15 min, held 3 min, 100 µL/min
# Protocol Conditions: column: Zorbax Extend-C18 2.1 x 50 mm; eluents: water / acetonitrile, 0.1% formic acid
Observation Type: RP-LC retention time (s)
Write the value in s as a bare number.

CNC(=O)C1CN(C(=O)Nc2ccccc2C(F)(F)F)CC12CCCC2 (stereo unspecified); 734
Cc1ccc(NC(=O)N(C)CC2CCOC2)cc1F (stereo unspecified); 722

[Q] Which RP-LC retention time is listed for `C=CCNC(=O)c1cc(=O)[nH]c2c(Cl)cccc12` ?
[A] 641

[Q] Give its RP-LC retention time value. Item: `Cc1ccc(S(=O)(=O)N2C[C@@H](F)C[C@H]2C(=O)N2CCc3ccccc3C2)cc1Cl`
[A] 1020

[Q] So what's the measured RP-LC retention time for this one? `Cc1cc(F)ccc1NC(=O)C1CCN(S(=O)(=O)c2cn(C(C)C)cn2)CC1`
[A] 732

[Q] Name the recorded RP-LC retention time for `COc1ccc(OC)c(-c2csc(NC(=O)c3ccccc3)n2)c1` .
[A] 1040

[Q] Which measured RP-LC retention time value corresponds to `CCc1cc(=O)n(CC(=O)NCc2ccc3c(c2)OCO3)c(-c2ccccc2)n1` ?
[A] 1000

[Q] Please look up its RP-LC retention time: `Cc1cc(C)n(CC(=O)N2CCN(c3ccccc3O)CC2)n1`
[A] 604

[Q] Fill blank: measured RP-LC retention time of the compound CC12COC3(C(=O)Nc4ccc(F)cc4)CC1CCC32C (stereo unspecified) is ____.
[A] 1030

[Q] What value of RP-LC retention time has been recorded for this entry: `COC(=O)Nc1ccc2[nH]cc(CCNC(C)=O)c2c1`
[A] 673

---

Listed below: RP-LC retention time values for each entry.
# Run Description: gradient 5% acetonitrile 3 min, to 50% in 2 min, to 85% in 15 min, held 3 min, 100 µL/min
# Protocol Conditions: column: Zorbax Extend-C18 2.1 x 50 mm; eluents: water / acetonitrile, 0.1% formic acid
Your answer is read as s, so omit the unit and give the number.

O=C(COc1ccccc1-c1nnc(-c2ccccc2)o1)Nc1ccc2c(c1)OCO2; 1100
Cc1c(Cl)cccc1NC(=O)N1CCC(OC2CCN(S(C)(=O)=O)CC2)CC1; 743
COCCNC(=O)NCCn1c(-c2ccc(C)cc2)nc2ccccc21; 588
COC(=O)c1nnn(-c2cc(C)cc(C)c2)c1C(=O)OC; 949
CC(C)CC(=O)Nc1nc(-c2ccc3c(c2)N(C)C(=O)C(C)O3)cs1 (centres undefined); 921

[Q] For `Cc1ccc(S(=O)(=O)Nc2ccc(Nc3cc(-n4cccn4)ncn3)cc2)c(C)c1` , what is its reported RP-LC retention time?
[A] 888

[Q] // query RP-LC retention time value for entry `CCN(CC)S(=O)(=O)N1CCC(C(=O)Nc2ccc3sc(NC(=O)C(C)C)nc3c2)CC1`
[A] 854

[Q] GET /values?readout=RP-LC retention time&item= `CN(C)S(=O)(=O)c1ccc(-c2nnc(C(=O)NCc3ccc(C(F)(F)F)cc3)o2)cc1`
[A] 940

[Q] What does the data say about its RP-LC retention time? Entry: `O=c1c2nc(-c3ccc(F)cc3F)cn2ccn1-c1ccc2c(c1)CCC2`
[A] 1030
